# System: SF-539 CNS
# Method description: NCI tumour cell line growth inhibition, 48 h
Endpoint: TGI

Worked examples follow.
{"Compound": "COC(=O)C(CCC1CC(OC)N(C(=O)OCc2ccccc2)C1)N=Cc1ccccc1 (centres undefined)", "Result": "> 100 µM"}
{"Compound": "O=C1CCC(c2nc3cc(Cl)ccc3o2)C(=O)N1 (centres undefined)", "Result": "> 100 µM"}

Batch request: TGI for each of the following compounds.
1. Nc1nc(-c2ccccc2)cc(-c2ccccc2O)n1
2. O=c1[nH]c2ccc(N=Cc3c(O)[nH]c4ccccc34)cc2[nH]1
3. O=[N+]([O-])c1ccc2scc3c4ccccc4nc-3c2c1
4. CCOC(=O)c1c(-c2ccccc2)oc(=O)c(Cc2cccc3cccnc23)c1-c1ccccc1

Result string:
["> 100 µM", "> 25 µM", "3.35 µM", "> 10 µM"]

Batch request: TGI for each of the following compounds.
1. OC1(c2ccccc2)CCCCCCCCC(O)(c2ccccc2)CCCCCCCC1 (centres undefined)
2. Fc1ccc(-c2nnc3sc(-c4cc(Cl)cc(Cl)c4)nn23)cc1Cl
3. Nc1ccn(C2OC(COP(=O)(O)OCC3OC(n4cc(F)c(=O)[nH]c4=O)CC3O)C(O)C2O)c(=O)n1 (centres undefined)

Result string:
1. > 100 µM
2. > 100 µM
3. > 100 µM

* * *

# Tested on: BT-549 breast
# Method description: NCI tumour cell line growth inhibition, 48 h
Can you tell me TGI for the items I'm about to list?

Worked examples follow.
{"Smiles structure": "C=C=C(C)C(=O)N(C(C)C)C(C)C", "TGI": "> 100 µM"}
{"Smiles structure": "O=c1n(-c2ccccc2)c(=O)n2n1C1C=CC2CCCCCC1", "TGI": "> 100 µM"}
{"Smiles structure": "Cc1ccc(S(=O)(=O)NCCN(CCNS(=O)(=O)c2ccc(C)cc2)S(=O)(=O)c2ccc(C)cc2)cc1", "TGI": "> 100 µM"}
{"Smiles structure": "O=C(Nc1ccc(Oc2cccc(Cl)c2)c(Cl)c1)c1cnccn1", "TGI": "> 50 µM"}
{"Smiles structure": "CN(C)CCNC(=O)c1cc([N+](=O)[O-])cn1C", "TGI": "> 100 µM"}

Okay, now this compound:
Query string: Would you mind telling me what TGI value was observed for CCC(=C/[C@H](C)C/C=C/C(C)=C/[C@@H](C)C(=O)[C@@H](C)[C@H](O)[C@@H](C)CC)/C=C/[C@@H]1OC(=O)C=C[C@@H]1C ?
Result string: < 0.005 µM

* * *

# Tested on: MCF7 breast
# Method description: NCI tumour cell line growth inhibition, 48 h
Can you tell me TGI for the items I'm about to list?

{"Compound": "O=C(O)COc1cc(-c2ccccc2)nc2ccc(F)cc12", "Endpoint": "TGI", "Result": "> 100 µM"}
{"Compound": "CC/C=C\\C/C=C\\C[C@H]1C/C=C2/C(=O)C=C[C@@H]2C/C=C\\CCC(=O)O1", "Endpoint": "TGI", "Result": "7.51 µM"}
{"Compound": "Cc1ccc(S(=O)(=O)NCCN(CCNS(=O)(=O)c2ccc(C)cc2)S(=O)(=O)c2ccc(C)cc2)cc1", "Endpoint": "TGI", "Result": "> 100 µM"}

Batch request: TGI for each of the following compounds.
1. c1ccc(CSSSCc2ccccc2)cc1
2. O=C1c2ccc3cc(CCl)cc(O)c3c2C(=O)c2cccc(O)c21

Result string:
1. > 42.1 µM
2. 2.72 µM

Reference source for all entries: PubChem BioAssay (NCI)
